Catalogue of binding (fold over iso) values
STUDY SYSTEM: T1, human LILRB2 expressed on cells (human, UniProt Q8N423 22-597)
T1 construct: CHO-s cells over-expressing full-length human LILRB2, or primary human macrophages and dendritic cells; also called hLILRB2-CHO-s; hLILRB2+ CHO-s
T1 sequence (Q8N423 other isoform, or with tags, fused parts or gaps limits assumed): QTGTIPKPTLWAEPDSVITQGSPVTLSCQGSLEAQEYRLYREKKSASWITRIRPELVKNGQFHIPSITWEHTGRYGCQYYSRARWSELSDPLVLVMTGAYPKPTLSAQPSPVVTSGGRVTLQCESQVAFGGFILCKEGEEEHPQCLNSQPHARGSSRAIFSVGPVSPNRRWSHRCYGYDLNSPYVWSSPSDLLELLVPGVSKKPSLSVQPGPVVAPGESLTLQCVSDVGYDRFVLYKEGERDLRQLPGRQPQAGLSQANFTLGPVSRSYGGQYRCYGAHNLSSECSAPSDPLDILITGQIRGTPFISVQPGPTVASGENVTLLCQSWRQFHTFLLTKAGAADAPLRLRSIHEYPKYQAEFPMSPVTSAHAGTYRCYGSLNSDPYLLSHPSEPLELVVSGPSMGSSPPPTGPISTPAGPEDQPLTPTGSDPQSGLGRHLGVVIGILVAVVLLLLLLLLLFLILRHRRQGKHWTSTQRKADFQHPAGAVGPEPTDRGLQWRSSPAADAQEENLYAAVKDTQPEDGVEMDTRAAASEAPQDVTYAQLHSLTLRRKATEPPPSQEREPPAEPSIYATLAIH
EXPERIMENTAL PROTOCOL: flow cytometry, LILRB2 CHOs
Write down the numeric answer in fold over iso and omit the unit.

As a guide, the following entries are already answered.
| BINDER | ASSAY VALUE |
| --- | --- |
| J-19.h1 (antibody, human IgG4 S228P, kappa, V domains shown, Humanized, human IgG4 backbone) VH: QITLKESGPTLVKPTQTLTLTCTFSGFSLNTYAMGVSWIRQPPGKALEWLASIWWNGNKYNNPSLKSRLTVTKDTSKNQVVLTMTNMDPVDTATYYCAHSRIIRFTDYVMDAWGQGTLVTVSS VL: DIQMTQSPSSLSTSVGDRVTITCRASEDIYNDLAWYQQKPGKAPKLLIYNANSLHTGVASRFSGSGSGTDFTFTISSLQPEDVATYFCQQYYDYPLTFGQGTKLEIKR | 73.2 |
| J-19.h3 (antibody, human IgG4 S228P, kappa, V domains shown, Humanized, human IgG4 backbone) VH: QVTLKESGPSLVKPTQTLTLTCTFSGFSLNTYAMGVSWIRQPPGKALEWLASIWWNGNKYNNPSLKSRLTITKDTSKNQVVLKVTNMDPADTATYYCAHSRIIRFTDYVMDAWGQGTTVTVSS VL: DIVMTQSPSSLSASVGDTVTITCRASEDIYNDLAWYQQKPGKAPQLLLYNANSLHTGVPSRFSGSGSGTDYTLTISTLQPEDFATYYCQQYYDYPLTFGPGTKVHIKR | 79.4 |
| J-19.h4 (antibody, human IgG4 S228P, kappa, V domains shown, Humanized, human IgG4 backbone) VH: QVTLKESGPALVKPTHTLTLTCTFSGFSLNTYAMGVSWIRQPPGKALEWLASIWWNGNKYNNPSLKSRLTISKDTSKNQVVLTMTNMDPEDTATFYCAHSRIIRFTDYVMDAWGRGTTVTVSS VL: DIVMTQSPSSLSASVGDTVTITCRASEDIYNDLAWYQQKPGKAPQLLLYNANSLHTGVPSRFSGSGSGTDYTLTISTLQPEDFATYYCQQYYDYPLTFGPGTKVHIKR | 76.5 |

Below: the item to evaluate.
Using the record for J-19.h2 (antibody, human IgG4 S228P, kappa, V domains shown, Humanized, human IgG4 backbone) VH: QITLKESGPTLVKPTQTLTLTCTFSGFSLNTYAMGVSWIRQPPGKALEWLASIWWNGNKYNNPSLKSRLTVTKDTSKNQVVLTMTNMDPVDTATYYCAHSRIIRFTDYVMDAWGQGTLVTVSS VL: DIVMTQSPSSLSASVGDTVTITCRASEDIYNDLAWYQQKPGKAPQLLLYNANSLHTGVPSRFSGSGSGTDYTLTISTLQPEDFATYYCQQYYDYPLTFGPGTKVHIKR , report its binding (fold over iso). 74.5
